assay: ATG_XTT_Cytotoxicity: Cytotoxicity Assessment in the Attagene TRANS-FACTORIAL HepG2 Assay (AID 2283584)
Results filed as inconclusive are left out. The source made the active and inactive calls. How the source made its calls: active means hit-call score of the fitted dose curve at least 0.9, where 1 is the maximum; inconclusive means response in the unintended direction; inactive means score below 0.9.
readout: outcome

Known results for compounds:
- CC(C)C=O: inactive
- O=C1NS(=O)(=O)c2ccccc21: inactive
- CCCC=O: inactive
- OCCN1CN(CCO)CN(CCO)C1: inactive
- CC(C)(C)c1ccc(CCC=O)cc1: inactive

Documented outcome of `Clc1ccc(Nc2nnc(Cc3ccncc3)c3ccccc23)cc1` : inactive

Documented outcome of `CC(=O)Nc1ccc(S(N)(=O)=O)cc1` : inactive

Documented outcome of `NS(=O)(=O)O` : inactive

Documented outcome of `Clc1ccc2c(Cl)ccnc2c1` : inactive

Documented outcome of `NCCN` : inactive

Documented outcome of `C[C@]12CC[C@@H]3c4ccc(O)cc4CC[C@H]3[C@@H]1CC[C@@H]2OC(=O)CCC1CCCC1` : inactive

Documented outcome of `O=C1c2ccc(O)c(O)c2C(=O)c2c(O)ccc(O)c21` : inactive

Documented outcome of `CC(=O)CC(C)C` : inactive

Documented outcome of `Cc1cccc2c1ccc1ccccc12` : inactive

Documented outcome of `C=CC(=O)OCCN(CC)CC` : inactive

Documented outcome of `Cc1ccccc1OCC(=O)O` : inactive

Documented outcome of `NNC(=O)CCCCC(=O)NN` : inactive

Documented outcome of `Oc1ccc(Cc2ccccc2O)cc1` : inactive

Documented outcome of CCC1CO1 (configuration not stated) : inactive

* * *

read-out: HGF (gene 3082); assay: LTEA_HepaRG_HGF: Life Technologies and Expression Analysis (LTEA) Assay for Hepatocyte Growth Facto (HGF) using HepaRG (AID 2283505); settings: mRNA level, 48 h; actives raise or lower the signal
The source made the active and inactive calls. The calls were made as follows: active = hit-call score of the fitted dose curve at least 0.9, where 1 is the maximum; inactive = score below 0.9.
Your answer must be one of the following: active, inactive

Worked examples, 2 molecules total:
• CCC(C)c1ccccc1O (stereo not drawn) = inactive
• CN(Cc1cnc2nc(N)nc(N)c2n1)c1ccc(C(=O)N[C@@H](CCC(=O)O)C(=O)O)cc1 = inactive

Query block: Which result was noted for this molecule in the test: `Cc1[nH]nc2c1N=C(c1ccccc1Cl)c1cc([N+](=O)[O-])ccc1N2`
Result block: active

Query block: Which result was noted for this molecule in the test: CCCCC(CC)C(=O)O (stereo not drawn)
Result block: inactive

Query block: Which result was noted for this molecule in the test: `CN(C)CCOC(c1ccccc1)c1ccccc1`
Result block: inactive

Query block: Which result was noted for this molecule in the test: `CCCCCCCCCCCCCCC`
Result block: inactive

Query block: Which result was noted for this molecule in the test: `OCC(CO)(CBr)CBr`
Result block: inactive

Query block: Which result was noted for this molecule in the test: `N=C(N)c1ccc(OCCCCCOc2ccc(C(=N)N)cc2)cc1`
Result block: active

* * *

experiment: ATG_PBREM_CIS: Attagene CIS-FACTORIAL HepG2 Assay for human Phenobarbital-responsive Enhancer Module (PBREM) (AID 2282955); conditions: HepG2 PBREM cis-reporter, Attagene multiplexed transcription; actives raise or lower the signal
Calls of active or inactive are those of the source. How the source made its calls: active means hit-call score of the fitted dose curve at least 0.9, where 1 is the maximum; inactive means score below 0.9.
Your answer must be one of the following: active, inactive

- CCCCCCc1ccc(N)cc1: inactive
- COCN(COC)c1nc(N(COC)COC)nc(N(COC)COC)n1: inactive
- CCOCCOCC: inactive

Query block: Which result was noted for this molecule in the test: CCCCC(CC)C(=O)OCCOCCOCCOCCOC(=O)C(CC)CCCC (stereo not given)
Result block: active

Query block: Which result was noted for this molecule in the test: `O=C(F)C(F)(F)C(F)(F)C(F)(F)C(F)F`
Result block: inactive

Query block: Which result was noted for this molecule in the test: `O=C(O)C(=O)O`
Result block: inactive

Query block: Which result was noted for this molecule in the test: `CCC(=O)C=Cc1ccc(OC)cc1`
Result block: inactive

Query block: Which result was noted for this molecule in the test: `O=S(=O)(O)c1ccc2cc(O)ccc2c1`
Result block: inactive

Data credit: PubChem BioAssay (EPA / NIEHS)
